System: SF-539 CNS
assay.notes: NCI tumour cell line growth inhibition, 48 h; in the data active = GI50 below about 0.43 µM; inactive = the rest
# output must be one of active, inactive

Per the assay record, what outcome was assigned to COc1ccc(N(CC(=O)NCCC[Te]c2ccccc2)C(=O)c2ccccc2)cc1 ?
inactive

What do you have for CC(=O)N1N=C2/C(=C/c3ccccc3)CC(C)CC2C1c1ccccc1 (stereo not given) ?
inactive

What do you have for CC(=O)[CH-]C(=O)c1ccccc1.CC(=O)[CH-]C(=O)c1ccccc1.CC[O-].CC[O-].[Zr+4] ?
inactive

What do you have for O=C1NN(c2ccc(C(=O)O)cc2)C(=O)/C1=C\c1ccc([N+](=O)[O-])o1 ?
inactive

What do you have for CC[C@H](C)[C@H]1NC(=O)[C@@H](N[C@](C)(O)[C@@H](N)CC(C)C)[C@@H](C)OC(=O)[C@H](Cc2ccc(OC)cc2)N(C)C(=O)[C@@H]2CCCN2C(=O)[C@H](CC(C)C)NC(=O)[C@@H](C)C(=O)[C@H](C(C)C)OC(=O)C[C@@H]1O ?
active

What do you have for COc1cc2nc3sc(C(=O)Nc4ccc(C(=O)OC(C)C)cc4)c(C(=O)Nc4ccc(Cl)cc4C)n3c(=O)c2cc1OC ?
inactive

What do you have for Oc1ccc2cc(Br)ccc2c1-c1c(O)ccc2cc(Br)ccc12 ?
inactive

What do you have for c1ccc(Cn2cc3c(c2-c2ccccc2)CCc2cnoc2-3)cc1 ?
inactive

What do you have for O=c1cc(-c2cccc(C(F)(F)F)c2)[nH]c2cc3c(cc12)OCO3 ?
inactive

What do you have for Cc1cc(N2CCCCC2)nc(N(CCCNc2ccnc3cc(Cl)ccc23)Cc2ccco2)n1 ?
inactive

What do you have for COc1ccc2nc(-c3cc(-c4cc(OC)c(OC)c(OC)c4)n[nH]3)[nH]c2c1 ?
inactive

What do you have for COc1cc(C(=O)c2ccc3c(c2)OCO3)cc(OC)c1OC ?
inactive

What do you have for COc1ccc2c(c1)c(-c1ccc(-c3cn(S(=O)(=O)c4ccccc4)c4ccc(OC)cc34)s1)cn2S(=O)(=O)c1ccccc1 ?
inactive

###

Measured TGI by item
Tested on: A498 renal
assay.notes: NCI tumour cell line growth inhibition, 48 h
// note: answer is a bare numeric in µM

COc1cc(O)c2c(O)c3c(c4c2c1[C@]1(C4)C(C)=CCCC1(C)C)[C@H](O)[C@@]1(O)CC(=O)C(C(N)=O)=C(O)[C@@]1(O)C3=O    0.743
C[n+]1c2ccccc2c(CNc2ccc(S(=O)(=O)N=C(N)N)cc2)c2ccccc21    86.2
CCCCCCC(=O)OC[n+]1ccc2c(C)c3[nH]c4ccccc4c3c(C)c2c1    2.19
C=C1C(=O)O[C@@H]2[C@H]1C[C@@H](O)[C@H](C)[C@@](O)(C(=O)/C=C/C)[C@H]2OC(=O)C(C)CC (stereo not given in full)    37.7

I would be grateful if you could share the reported TGI for COc1ccc(N2C(=O)C3c4[nH]c5ccc(OC)cc5c4C4CCC(C(C)(C)C)CC4C3C2=O)cc1 (stereo not given) .
49.3

What do you have for CC(=O)O[C@H]1C(=O)[C@@]2(C)[C@H]([C@H](OC(=O)c3ccccc3)[C@]3(O)C[C@H](OC(=O)[C@H](OC(=O)OCCC(O)CO)[C@@H](NC(=O)c4ccccc4)c4ccccc4)C(C)=C1C3(C)C)[C@]1(OC(C)=O)CO[C@@H]1C[C@@H]2O (stereo not given in full) ?
28.9

What do you have for N#C[S-].[Nd+3].c1cnc2c(c1)ccc1cccnc12.c1cnc2c(c1)ccc1cccnc12.c1cnc2c(c1)ccc1cccnc12 ?
13.6

What do you have for COc1ccc(N(CC(=O)NCCC[Te]c2ccccc2)C(=O)c2ccccc2)cc1 ?
5.35
